target: 5-HT transporter (Rattus norvegicus); construct: from tissue; host or cells: rat brain synaptosomes (P2 fraction) from medulla and pons; experiment: 5-HT uptake inhibition in rat brain synaptosomes (medulla and pons), [3H]-5-HT; type: biochemical
Sequence (P31652 whole entry): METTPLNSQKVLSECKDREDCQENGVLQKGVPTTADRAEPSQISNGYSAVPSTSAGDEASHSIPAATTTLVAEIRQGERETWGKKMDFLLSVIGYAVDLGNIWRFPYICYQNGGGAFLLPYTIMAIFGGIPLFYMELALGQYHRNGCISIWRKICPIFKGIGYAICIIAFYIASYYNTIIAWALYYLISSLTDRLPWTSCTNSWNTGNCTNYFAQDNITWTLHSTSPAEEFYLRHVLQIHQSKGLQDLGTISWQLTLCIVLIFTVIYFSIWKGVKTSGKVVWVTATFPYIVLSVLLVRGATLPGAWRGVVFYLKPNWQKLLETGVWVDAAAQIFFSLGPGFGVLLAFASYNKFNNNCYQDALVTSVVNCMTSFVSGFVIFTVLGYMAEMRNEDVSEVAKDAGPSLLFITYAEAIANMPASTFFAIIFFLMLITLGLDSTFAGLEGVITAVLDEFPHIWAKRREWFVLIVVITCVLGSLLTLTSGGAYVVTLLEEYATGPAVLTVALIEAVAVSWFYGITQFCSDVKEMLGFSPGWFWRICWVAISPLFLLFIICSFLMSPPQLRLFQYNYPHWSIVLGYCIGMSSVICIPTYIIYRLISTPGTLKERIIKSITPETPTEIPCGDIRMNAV
measurement-kind: inhibition at 10 µM (%)

# compound, assay-target, measurement-kind, value-units, quantitative-result
records = [
    ("CC(=O)c1cccc(NC(=O)N2CCC3(CC2)CN(Cc2ccc(C#N)cc2)C(=O)O3)c1", "5-HT transporter (Rattus norvegicus)", "inhibition at 10 µM", "%", 60),
    ("Cc1cc(C)cc(CN2CC3(CCN(C(=S)NCC4CCCO4)CC3)OC2=O)c1 (stereo not drawn)", "5-HT transporter (Rattus norvegicus)", "inhibition at 10 µM", "%", 76),
    ("Cc1ccccc1NC(=S)N1CCC2(CC1)CN(Cc1ccccc1)C(=O)O2", "5-HT transporter (Rattus norvegicus)", "inhibition at 10 µM", "%", 62),
]

* * *

target: NA transporter (Rattus norvegicus, UniProt Q63380); construct: from tissue; host or cells: rat brain synaptosomes (P2 fraction) from hypothalamus; test: noradrenalin uptake inhibition in rat brain synaptosomes (hypothalamus), [3H]-NA; type: biochemical
Sequence (Q63380 1-617): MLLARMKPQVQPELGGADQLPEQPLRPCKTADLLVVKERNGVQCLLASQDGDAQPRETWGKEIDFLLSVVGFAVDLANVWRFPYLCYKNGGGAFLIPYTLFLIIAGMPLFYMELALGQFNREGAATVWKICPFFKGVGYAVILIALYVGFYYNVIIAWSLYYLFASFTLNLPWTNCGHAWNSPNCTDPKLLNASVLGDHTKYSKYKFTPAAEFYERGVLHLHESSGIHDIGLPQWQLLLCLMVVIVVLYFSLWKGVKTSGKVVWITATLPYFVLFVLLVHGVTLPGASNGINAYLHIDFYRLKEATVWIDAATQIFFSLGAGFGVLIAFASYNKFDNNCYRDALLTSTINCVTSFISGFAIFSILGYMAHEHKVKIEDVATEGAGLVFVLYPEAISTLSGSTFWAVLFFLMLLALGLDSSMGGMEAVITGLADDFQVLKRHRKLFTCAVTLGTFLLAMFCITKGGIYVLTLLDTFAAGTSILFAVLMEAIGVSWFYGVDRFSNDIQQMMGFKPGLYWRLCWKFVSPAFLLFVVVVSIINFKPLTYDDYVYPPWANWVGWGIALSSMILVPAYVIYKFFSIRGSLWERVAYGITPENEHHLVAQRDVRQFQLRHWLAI

# compound, value-units, inhibition at 10 µM
records = [
    ("Cc1ccc(CN2CC3(CCN(C(=O)NCc4ccc(Cl)c(Cl)c4)CC3)OC2=O)cc1", "%", 60),
    ("Cc1ccc(NC(=O)N2CCC3(CC2)CN(Cc2ccc(F)c(F)c2)C(=O)O3)cc1[N+](=O)[O-]", "%", 41),
    ("O=C(CN1CCC2(CC1)CN(Cc1ccccc1C(F)(F)F)C(=O)O2)Nc1ccc(OC(F)(F)F)cc1", "%", 59),
    ("Cc1csc(NC(=O)CN2CCC3(CC2)CN(Cc2ccc(F)c(F)c2)C(=O)O3)c1C#N", "%", 45),
    ("COc1cccc(NC(=O)N2CCC3(CC2)CN(Cc2ccc(F)c(F)c2)C(=O)O3)c1", "%", 63),
    ("O=C(CN1CCC2(CC1)CN(Cc1ccccc1F)C(=O)O2)Nc1nc(-c2ccccc2)cs1", "%", 79),
    ("N#Cc1cccc(CN2CC3(CCN(C(=S)Nc4cc(Cl)cc(Cl)c4)CC3)OC2=O)c1", "%", 49),
    ("O=C(NCc1ccc(Cl)c(Cl)c1)N1CCC2(CC1)CN(Cc1ccc3ccccc3c1)C(=O)O2", "%", 61),
    ("CCOc1ccc(NC(=S)N2CCC3(CC2)CN(Cc2ccc(F)c(F)c2)C(=O)O3)cc1", "%", 53),
    ("N#Cc1cccc(CN2CC3(CCN(C(=S)NCC4CCCCC4)CC3)OC2=O)c1", "%", 48),
    ("O=C1OC2(CCN(Cc3ccc(OC(F)(F)F)cc3)CC2)CN1Cc1ccccc1", "%", 53),
    ("CCOC(=O)c1cccc(NC(=O)N2CCC3(CC2)CN(Cc2cccc(C#N)c2)C(=O)O3)c1", "%", 77),
    ("COc1cccc(CN2CC3(CCN(Cc4ccc(Cl)cc4)CC3)OC2=O)c1", "%", 57),
    ("O=C1OC2(CCN(C(=S)Nc3cc(Cl)ccc3Cl)CC2)CN1Cc1cccc(Br)c1", "%", 64),
    ("O=C(Nc1cc(F)ccc1F)N1CCC2(CC1)CN(Cc1cccc(Br)c1)C(=O)O2", "%", 82),
    ("CCOC(=O)c1cccc(NC(=O)N2CCC3(CC2)CN(Cc2ccc(C)cc2)C(=O)O3)c1", "%", 81),
    ("O=C(NCCc1ccccc1)N1CCC2(CC1)CN(Cc1ccccc1-c1ccccc1)C(=O)O2", "%", 55),
    ("COc1ccc(NC(=O)N2CCC3(CC2)CN(Cc2ccc4ccccc4c2)C(=O)O3)cc1", "%", 96),
    ("CCOC(=O)CC(C)NC(=S)N1CCC2(CC1)CN(Cc1cccc(Br)c1)C(=O)O2 (centres unmarked)", "%", 81),
    ("Cc1ccc(CN2CC3(CCN(C(=O)Nc4ccc(C)c([N+](=O)[O-])c4)CC3)OC2=O)cc1", "%", 68),
    ("CCCc1ccc(C(=O)N2CCC3(CC2)CN(Cc2cccc(Br)c2)C(=O)O3)cc1", "%", 75),
    ("O=C1OC2(CCN(Cc3ccc([N+](=O)[O-])cc3)CC2)CN1Cc1ccc(F)c(F)c1", "%", 57),
    ("O=C(NCc1ccc(Cl)c(Cl)c1)N1CCC2(CC1)CN(Cc1cccc(Br)c1)C(=O)O2", "%", 83),
    ("O=C(NCCc1ccccc1)N1CCC2(CC1)CN(Cc1ccccc1C(F)(F)F)C(=O)O2", "%", 48),
    ("CC(=O)c1cccc(NC(=S)N2CCC3(CC2)CN(Cc2cc(C)cc(C)c2)C(=O)O3)c1", "%", 50),
    ("CC(=O)c1cccc(NC(=S)N2CCC3(CC2)CN(Cc2ccccc2F)C(=O)O3)c1", "%", 48),
]

* * *

molecular target: 5-HT transporter (Rattus norvegicus); construct: from tissue; host or cells: rat brain synaptosomes (P2 fraction) from medulla and pons; assay: 5-HT uptake inhibition in rat brain synaptosomes (medulla and pons), [3H]-5-HT; type: biochemical
Recorded inhibition at 10 µM, one value per entry.

# molecule, inhibition at 10 µM, %
data = [
    ("N#Cc1ccc(CN2CC3(CCN(C(=O)C4CC4c4ccccc4)CC3)OC2=O)cc1 (stereo not shown)", 63),
    ("CC(=O)OC(C(=O)N1CCC2(CC1)CN(Cc1cc(C)cc(C)c1)C(=O)O2)c1ccccc1 (stereo not shown)", 74),
    ("COc1ccc(NC(=O)N2CCC3(CC2)CN(Cc2ccc(C#N)cc2)C(=O)O3)cc1", 49),
    ("CC(NC(=S)N1CCC2(CC1)CN(Cc1ccccc1-c1ccccc1)C(=O)O2)c1ccccc1 (stereo not shown)", 60),
    ("CCCCOc1ccc(CS(=O)(=O)N2CCC3(CC2)CN(Cc2cc(C)cc(C)c2)C(=O)O3)cc1", 83),
    ("Cc1cc(C)cc(CN2CC3(CCN(C(=O)c4cccs4)CC3)OC2=O)c1", 70),
    ("Cc1ccc(CN2CC3(CCN(C(=O)NCCc4ccccc4)CC3)OC2=O)cc1", 51),
    ("CCSc1ncccc1C(=O)N1CCC2(CC1)CN(Cc1ccccc1C(F)(F)F)C(=O)O2", 63),
    ("CCSc1ncccc1C(=O)N1CCC2(CC1)CN(Cc1cccc(OC)c1)C(=O)O2", 71),
    ("Cc1cc(C)cc(CN2CC3(CCN(C(=O)c4ccno4)CC3)OC2=O)c1", 62),
]
